Reported growth values are given for each entry in this list.
tested on: HOP-62 NSCLC; assay: NCI-60 one-dose screen, 48 h (100 = growth as untreated, 0 = no growth, -100 = all killed); details: 10 µM
This is part of a sample that, as a whole, favours compounds with a hit. Of some 83,000 tested, about 20% had one in any assay.
measurement type: growth (%)

molecule: COc1ccc(NC(=O)CSc2nc3ccccc3c(=O)n2CCc2ccccc2)cc1
val: 48.3
//
molecule: O=c1c2ccccc2nc(SCCN2CCCCC2)n1CCc1ccccc1
val: 89
//
molecule: CCCCCCCCCCCC[n+]1ccc(C(N)=O)cc1
val: 33.7
//
molecule: N#CC1=C(Nc2ccccc2Cl)SC(c2ccccc2O)NC1=O (stereo not drawn)
val: 115
//
molecule: CCCCCCNC(=O)Oc1ccc(/C(=C(/CC)Cc2ccccc2)c2ccc(OCCN3CCCCC3)cc2)cc1
val: 86.6
//
molecule: COc1ccc2c(c1)C(=O)c1c-2c(OCCN(C)C)nc2cc(OC)c(OC)cc12
val: 36.1
//
molecule: CCCCN(CCCC)CCCCCCCCC(O)c1cc2ccccc2c2ccccc12 (stereo not drawn)
val: 76.7
//
molecule: C=C(C(=O)c1ccccc1)C(NC(C)(C)C)c1ccccc1 (stereo not drawn)
val: 47.5
//
molecule: CCOC(=O)C(=Cc1ccc(Br)cc1)C(=O)OCC
val: 0.525
//
molecule: COc1cc(-c2nnc(-c3c(-c4ccc(F)cc4)nc4ccccn34)o2)cc(OC)c1OC
val: 62.9
//
molecule: CC(=O)CSC(C)=O
val: 101
//
molecule: Clc1cc2c(c(CSc3nc4ccccc4n4cccc34)c1)OCOC2
val: 88.2
//
molecule: O=S(=O)(NCCNc1nccc(-c2c(-c3ccc(F)cc3)nc3sccn23)n1)c1ccc2ccccc2c1
val: 88.5
//
molecule: CC/C(C)=C(\C)C(=O)O
val: 95
//
molecule: O=C1C(=O)c2ccccc2C(O)=C1CCCc1ccc(C2CCCCCC2)cc1
val: 40.8
//
molecule: O=C(Nc1cccc(Br)c1)c1cc(=O)[nH]c2ccccc12
val: 64.3
//
molecule: COc1ccc(-c2nc(-c3nc4cc(Cl)c(Cl)cc4[nH]3)c3ccccn23)cc1
val: -11.7
//
molecule: Cc1ccc(N=Nc2c(N)nc(N)[nH]c2=O)cc1C
val: 92.9
//
molecule: CCOC(=O)CCC(NC(=O)c1ccc(N)cc1)C(=O)OCC (stereo not drawn)
val: 96
//
molecule: CCN(CC)CCOc1nc2ccc(OC)cc2c2c1-c1ccc(OC)cc1C2=O
val: 6.96
//
molecule: COc1cc(/C=C/C(=O)c2ccc(Cl)cc2)ccc1OS(=O)(=O)c1ccc(C)cc1
val: 95.1
//
molecule: CS(=O)(=O)Nc1cccc(-c2cc(-c3ccccc3Cl)c(C#N)c(N)n2)c1
val: 45.8
//
molecule: Cc1ccc(S(=O)(=O)Oc2ccc3c4c(c(=O)oc3c2)CCCCC4)cc1
val: 81
//
molecule: O=C(Nc1nc(-c2ccccc2Cl)cs1)c1cc(-c2ccc(Cl)cc2)nc2ccc(Cl)cc12
val: 28.5
//
molecule: Cc1cc(N(CCCNc2ccnc3cc(Cl)ccc23)Cc2ccc3c(c2)OCO3)nc(N2CCCCC2)n1
val: -45.1
//
molecule: NC(=O)c1ccc(-c2cccc3c(=O)nc(N4CCOCC4)oc23)cc1
val: 95.1
//
molecule: COc1ccc(-c2nn(-c3cccc(NC(=O)Nc4cccc(C(F)(F)F)c4)c3)cc2-c2ccncc2)cc1Cl
val: 25.2
//
molecule: Cc1nc2c(c(=O)[nH]1)OCN(Cc1ccccc1)C2
val: 107
//
molecule: COc1cc(/C=N/NC(=O)c2ccccc2Nc2ccnc(C(F)(F)F)c2)ccc1O
val: 110
//
molecule: CCN(CC)CCC(=O)Nc1cccc2c1C(=O)c1c(c(O)c3ccccc3c1O)C2=O
val: 47.9
//
molecule: Nc1nc(N=Nc2ccc(O)cc2)cc(=O)[nH]1
val: 102
//
molecule: S=c1[nH]ccn1-c1c(Cl)cccc1Cl
val: 93.5
//
molecule: O=C(Nc1cccc(-n2cc(-c3ccncc3)c(-c3ccc(O)c(Cl)c3)n2)c1)Nc1cccc(C(F)(F)F)c1
val: -3.45
//
molecule: Cn1c([N+](=O)[O-])cnc1/C=C1\Oc2cc(Cl)ccc2C1=O
val: 16.5
//
molecule: O=C1OCC2=C1C(c1cccc(Cl)c1)c1cc3c(cc1N2CCO)OCCO3 (stereo not drawn)
val: 26.7
//
molecule: CCN(CC)CCNc1ccc(CO)c2oc3cc(Cl)ccc3c(=O)c12
val: 88.4
//
molecule: C#Cc1ccc(-n2c(/C=C/c3ccc4ccccc4c3)nc3ncccc3c2=O)cc1
val: 63
//
molecule: COc1cc(/C=C2\Oc3cc(OCC(=O)c4ccccc4)ccc3C2=O)cc(OC)c1OC
val: 2.36
//
molecule: Cc1nc2oc3ccccc3c(=O)c2cc1C(=O)NCc1ccccc1
val: 90.5
//
molecule: COc1ccc2c(c1)/C(=C\c1c[nH]c3ccc(OC)cc13)C(=O)N2
val: 51
//
molecule: COc1ccc(Cl)cc1-n1nnc(-c2nc3ccccc3[nH]2)c1N
val: 37.3
//
molecule: CN(C)CCCn1c(=O)c2ccccc2c2cnc3[nH]ccc3c21
val: -1.44
//
molecule: COc1ccc2c(c1)-c1c(c3cc(OC)ccc3n(CCN(C)C)c1=O)C2=O
val: 15.3
